# System: mixed lymphocyte reaction (PBMC with allogeneic PBMC or Eppstein-Barr Virus-transformed human B cells as stimulator cells)
# assaySummary: Mixed lymphocyte reaction (MLR) assay
# Type: cell-based
# assayContext: lowest concentration giving 50% suppression of the MLR; [3H]-thymidine
Below, each of the compounds is paired with its reported IC50 value.
Give just the number in nM; leave the unit off.

CCN(CC)C(=O)N1CCN(c2nc(N)nc3ncc(-c4ccc(OC)c(OC)c4)nc23)CC1 [Example 14] | 200

[ask] Recall and state the measured IC50 for COc1ccc(-c2cnc3nc(N)nc(N4CCN(c5ccc(C(F)(F)F)cc5[N+](=O)[O-])CC4)c3n2)cc1OC [Example 185] .
[reply] 1900

[ask] Recall and state the measured IC50 for COc1ccc(-c2cnc3nc(N)nc(N4CCN(C/C=C/c5ccccc5)CC4)c3n2)cc1OC [Example 66] .
[reply] 800

[ask] Recall and state the measured IC50 for COc1ccc(-c2cnc3nc(N)nc(N4CCN(C(=O)c5ccco5)CC4)c3n2)cc1OC [Example 27] .
[reply] 80

[ask] Recall and state the measured IC50 for COc1ccc(-c2cnc3nc(N)nc(N4CCN(C(=O)CN5CCOCC5)CC4)c3n2)cc1OC [Example 130] .
[reply] 1500

[ask] Recall and state the measured IC50 for COc1ccc(-c2cnc3nc(N)nc(N4CCN(Cc5ccc(F)cc5)CC4)c3n2)cc1OC [Example 138] .
[reply] 6000

[ask] Recall and state the measured IC50 for COc1ccc(-c2cnc3nc(N)nc(N4CCN(C(=O)c5ccoc5)CC4)c3n2)cc1OC [Example 47] .
[reply] 300

[ask] Recall and state the measured IC50 for COc1ccc(-c2cnc3nc(N)nc(N4CCN(C(=O)Oc5ccccc5Cl)CC4)c3n2)cc1OC [Example 96] .
[reply] 150

* * *

# Test system: mixed lymphocyte reaction (PBMC with allogeneic PBMC or Eppstein-Barr Virus-transformed human B cells as stimulator cells)
# assaySummary: Mixed lymphocyte reaction (MLR) assay
# Type: cell-based
# assayContext: lowest concentration giving 50% suppression of the MLR; [3H]-thymidine
endpointLabel: pIC50
The value called pIC50 is obtained by taking minus log10 of the concentration in mol/L.

Example compounds with recorded pIC50:
COc1ccc(-c2cnc3nc(N)nc(N4CCN(c5ccc(F)cc5)CC4)c3n2)cc1OC | 7.00
COc1ccc(-c2cnc3nc(N)nc(N4CCN(C(=O)Nc5ccsc5)CC4)c3n2)cc1OC | 8.52
COc1ccc(-c2cnc3nc(N)nc(N4CCN(C(=O)COCc5ccccc5)CC4)c3n2)cc1OC | 7.52

[ask] Recall and state the measured pIC50 for "COc1ccc(-c2cnc3nc(N)nc(N4CCN(C(=O)Cc5cccs5)CC4)c3n2)cc1OC" .
[reply] 6.10

[ask] Recall and state the measured pIC50 for "COc1ccc(-c2cnc3nc(N)nc(N4CCN(C(=O)[C@@H](N)Cc5ccccc5)CC4)c3n2)cc1OC" .
[reply] 5.39

[ask] Recall and state the measured pIC50 for "COc1ccc(-c2cnc3nc(N)nc(N4CCN(S(=O)(=O)c5ccccc5)CC4)c3n2)cc1OC" .
[reply] 5.52

[ask] Recall and state the measured pIC50 for "COc1ccc(-c2cnc3nc(N)nc(N4CCN(C(=O)COc5ccccc5)CC4)c3n2)cc1OC" .
[reply] 8.42

[ask] Recall and state the measured pIC50 for CCOC(=O)C(C)N1CCN(c2nc(N)nc3ncc(-c4ccc(OC)c(OC)c4)nc23)CC1 (centres unmarked) .
[reply] 5.92
